Assign IC90 to each entry below.
- System: H9 (acute lymphoblastic leukemia) cells
- protocol.description: MTT cell growth inhibition, leukemia cells
- Format: cell-based, human
- test.parameters: Homo sapiens; H9, 72 h, MTT; read-out: IC90
Give bare numbers, in µg/mL.

Illustrative cases are given below, each with its answer.
1) COc1ccc2cc1Oc1ccc(cc1)C[C@H]1c3cc(c(OC)cc3CCN1C)Oc1c(OS(=O)(=O)c3ccc(C)cc3)c(OC)cc3c1[C@H](C2)N(C)CC3 : 6.4
2) COc1ccc2cc1Oc1ccc(cc1)C[C@H]1c3cc(c(OC)cc3CCN1C)Oc1c(OC3CCCC3)c(OC)cc3c1[C@H](C2)N(C)CC3 : 6.64

// sample COc1ccc2cc1Oc1ccc(cc1)C[C@H]1c3cc(c(OC)cc3CCN1C)Oc1c(OCC(O)CN3CCCCC3)c(OC)cc3c1[C@H](C2)N(C)CC3 (stereo partly drawn) , its IC90 was 1.9
